Test system: 898857-211-R-J1-PDC complex spheroids, growth % test/control
assay details: Anticancer human tumor 898857-211-R-J1-PDC patient-derived melanoma cell line growth inhibition [RAS]
stated conditions: compound 1 µM; stronger effect = lower value
Measured viability, T/C, listed per entry for reference.

NC1c2ccccc2OC12CCN(c1cnc3c(N4CCCc5ncccc54)n[nH]c3n1)CC2 (centres undefined) : 87% [middle of 4 runs]

Reported viability, T/C ( Nc1ccn(C2OC(CO)C(O)C2(F)F)c(=O)n1 (centres undefined) ) = 4.83% [middle of 4 runs]

Reported viability, T/C ( CC(Nc1ccc2c(c1)OCCn1cc(N3C(=O)OCC3C(F)F)nc1-2)C(N)=O (centres undefined) ) = 91.9% [middle of 4 runs]

Reported viability, T/C ( `O=C(c1ccc(F)c(F)c1Nc1ccc(I)cc1F)N1CC(O)([C@@H]2CCCCN2)C1` ) = 13.4% [middle of 4 runs]

====

System: 898857-211-R-J1-PDC complex spheroids, growth % test/control
assay details: Anticancer human tumor 898857-211-R-J1-PDC cell line growth inhibition [RAS];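 note: spheroids exposed to compound for seven days before readout; 100% = DMSO vehicle control wells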
stated conditions: second compound 0.1 µM; first compound 0.0316 µM; stronger effect = lower value
measured property: viability, T/C (%)
Number in %, nothing else.

These recorded examples may help you get a feel for the data.
CC1(O)CCCC1n1c(=O)c(C(F)F)cc2cnc(NC3CCN(S(C)(=O)=O)CC3)nc21 (stereo not drawn) + C=CC(=O)N1CCN(c2nc(OCC3CCCN3C)nc3c(F)c(-c4nc(N)cc(C)c4C(F)(F)F)c(Cl)cc23)C(C)C1 : 92.1
C[C@@H](NC(=O)c1ncnc(N)c1Cl)c1ncc(C(=O)Nc2cc(C(F)(F)F)c(Cl)cn2)s1 + C=CC(=O)N1CCN(c2nc(OCC3CCCN3C)nc3c(F)c(-c4nc(N)cc(C)c4C(F)(F)F)c(Cl)cc23)C(C)C1 : 124

# input for lookup
Reported viability, T/C ( CC(=O)OC12COC1CC(O)C1(C)C(=O)C(O)C3=C(C)C(OC(=O)C(O)C(NC(=O)OC(C)(C)C)c4ccccc4)CC(O)(C(OC(=O)c4ccccc4)C21)C3(C)C (stereo not drawn) + C=CC(=O)N1CCN(c2nc(OCC3CCCN3C)nc3c(F)c(-c4nc(N)cc(C)c4C(F)(F)F)c(Cl)cc23)C(C)C1 ) = 11.5

====

System: 898857-211-R-J1-PDC complex spheroids, growth % test/control
assay details: Anticancer human tumor 898857-211-R-J1-PDC cell line growth inhibition [RAS]; active means viability on the fitted dose curve at most 10% of control; inactive means the rest;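 note: spheroids exposed to compound for seven days before readout; 100% = DMSO vehicle control wells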
stated conditions: second compound 0.0949 µM; first compound 0.1 µM
Classes to choose from: TRUE for active, FALSE for inactive

Solved entries (count: 2):
C[C@@H](NC(=O)c1ncnc(N)c1Cl)c1ncc(C(=O)Nc2cc(C(F)(F)F)c(Cl)cn2)s1 + CCn1c(-c2cccnc2C(C)OC)c2c3cc(ccc31)N1CCOC(CC(NC(=O)C(C(C)C)N(C)C(=O)C3(F)CCN(C(=O)C#CC(C)(C)N(C)C)CC3)C(=O)N3CCCC(N3)C(=O)OCC(C)(C)C2)C1 : FALSE
O=C(c1ccc(F)c(F)c1Nc1ccc(I)cc1F)N1CC(O)([C@@H]2CCCCN2)C1 + CCn1c(-c2cc(N3CCN(C)CC3)cnc2C(C)OC)c2c3cc(ccc31)-c1csc(n1)CC(NC(=O)C1CC1C)C(=O)N1CCCC(N1)C(=O)OCC(C)(C)C2 : TRUE

Any idea what this test logged for C=CC(=O)Nc1cc(Nc2nccc(-c3cn(C)c4ccccc34)n2)c(OC)cc1N(C)CCN(C)C + CCn1c(-c2cccnc2C(C)OC)c2c3cc(ccc31)N1CCOC(CC(NC(=O)C(C(C)C)N(C)C(=O)C3(F)CCN(C(=O)C#CC(C)(C)N(C)C)CC3)C(=O)N3CCCC(N3)C(=O)OCC(C)(C)C2)C1 ? FALSE

Any idea what this test logged for CCC(CC)c1cc(NC2CCC(N)C2)n2nccc2n1 (centres undefined) + CCn1c(-c2cc(N3CCN(C)CC3)cnc2C(C)OC)c2c3cc(ccc31)-c1csc(n1)CC(NC(=O)C1CC1C)C(=O)N1CCCC(N1)C(=O)OCC(C)(C)C2 ? FALSE
